All values here come from patent US20230172204A1.

- Test system: Phakopsora pachyrhizi (F129L)
- assay_details: Protective control of soybean rust on soybeans (PHAKPA P6)
- Format: in vivo
- condition: protective P6, 4 ppm, soybean rust F129L
readout: % PHAKPA (F129L) Disease level P6 at 4 ppm

• CNC(=O)/C(=N/OC)c1cccc(C)c1CO/N=C(\C)c1ccc(C#N)c(C(F)(F)F)c1 = 63%
• CO/N=C(/C(=O)OC)c1cccc(C)c1CO/N=C(\C)c1ccccc1CC(F)(F)F = 100%
• CO/N=C(/C(=O)OC)c1cccc(C)c1CO/N=C(\C)c1ccc(OC)cc1OC(F)(F)F = 100%

* * *

- Test system: Phakopsora pachyrhizi (F129L)
- assay_details: Protective control of soybean rust on soybeans (PHAKPA P2)
- Type: in vivo
- condition: protective P2, 16 ppm, soybean rust F129L
readout: % PHAKPA (F129L) Disease level P2 at 16 ppm (%)

* CNC(=O)/C(=N/OC)c1cccc(C)c1CO/N=C(\C)c1cc(Cl)ccc1Cl | 1
* CO/N=C(/C(=O)OC)c1cccc(C)c1CO/N=C(\C)c1cccc(OC)c1 | 1
* CO/N=C(/C(=O)OC)c1cccc(C)c1CO/N=C(\C)c1ccccc1OC(F)F | 87
* CNC(=O)/C(=N/OC)c1cccc(C)c1CO/N=C(/c1cccc(C(F)(F)F)c1)C(C)C | 11
* CNC(=O)/C(=N/OC)c1cccc(C)c1CO/N=C(\CC(C)C)c1cccc(C(F)(F)F)c1 | 73
* CO/N=C(/C(=O)OC)c1cccc(C)c1CO/N=C(\C)c1ccc(Cl)cc1 | 13
* CNC(=O)/C(=N/OC)c1cccc(C)c1CO/N=C(\C)c1cccc(C(C)(F)F)c1 | 0
* CNC(=O)/C(=N/OC)c1cccc(C)c1CO/N=C(\C)c1ccc(C)cc1 | 0

* * *

- System: Phakopsora pachyrhizi (F129L)
- assay_details: Protective control of soybean rust on soybeans (PHAKPA P6)
- Type: in vivo
- condition: protective P6, 4 ppm, soybean rust F129L
readout: % PHAKPA (F129L) Disease level P6 at 4 ppm (%)

* CO/C=C(/C(=O)OC)c1cccc(C)c1CO/N=C(\C)c1ccc(F)c(F)c1OC(F)(F)F | 4
* CNC(=O)/C(=N/OC)c1cccc(C)c1CO/N=C(\C)c1ccc(C)c(C)c1 | 72
* CO/N=C(/C(=O)OC)c1cccc(C)c1CO/N=C(\C)c1ccc(-c2ccc(F)cc2)cc1C(F)(F)F | 53
* CNC(=O)/C(=N/OC)c1cccc(C)c1CO/N=C(\CC1CC1)c1cccc(C(F)(F)F)c1 | 53
* CO/N=C(/C(=O)OC)c1cccc(C)c1CO/N=C(\C)c1cc(C)cc(Cl)c1 | 60
* CO/N=C(/C(=O)OC)c1cccc(C)c1CO/N=C(\C)c1cc(Cl)cc(C(F)(F)F)c1 | 60
* CO/N=C(/C(=O)OC)c1cccc(C)c1CO/N=C(\C)c1ccc(C)cc1 | 50
* CNC(=O)/C(=N/OC)c1cccc(C)c1CO/N=C(\C)c1ccc(F)cc1 | 1
* CO/N=C(/C(=O)OC)c1cccc(C)c1CO/N=C(\C)c1cccc(CC2COC2)c1 | 87
* C#Cc1ccc(/C(C)=N/OCc2c(C)cccc2/C(=N\OC)C(=O)OC)cc1 | 83
* CNC(=O)/C(=N/OC)c1cccc(C)c1CO/N=C(\C)c1cccc(C(C)(F)F)c1 | 12
* CO/N=C(/C(=O)OC)c1cccc(C)c1CO/N=C(\C)c1ccccc1C(C)C | 100
* CNC(=O)/C(=N/OC)c1cccc(C)c1CO/N=C(\C)c1ccc(Br)cc1C(F)(F)F | 73
* C#Cc1cc(F)c(F)c(/C(C)=N/OCc2c(C)cccc2/C(=N\OC)C(=O)NC)c1 | 37
* CO/N=C(\C)COc1cccc(/C(C)=N/OCc2c(C)cccc2/C(=N\OC)C(=O)OC)c1 | 100
* CNC(=O)/C(=N/OC)c1cccc(C)c1CO/N=C(\C)c1ccc(/C(C)=N/OC)cc1 | 13
